The reported numbers originate from patent US10420815B2.

Field: MIC. Provide a value for each of the compounds that follow.
- Tested on: MRSA USA300 (BAA-1680)
- assay: microbe, parasite or virus in culture
- Assay type: cell-based, Staphylococcus aureus
- experimentalSetup: agent alone
- Procedure: MRSA (ATCC 33593), MSSA (ATCC 29213), and MRSA USA300 (BAA-1680) strains were purchased from the American Type Culture Collection (ATCC; Manassas, Va.). Eight clinical isolates of MRSA were obtained from the Culture Collection of Antimicrobial Resistant Microbes, Korea National Research Resource Center (KNRRC). […] The optical density at 600 nm (OD600) was measured every hour with FLUOstar® Omega (BMG Labtech, Germany). […]
Bridge positions count the residues as written; N and C are the ends. Square brackets hold non-standard residues; d marks the D form. Peptide text beside a SMILES is read from it. * marks the point of attachment. Ileψ(thiazoline)Cys = CC[C@H](C)[C@H](N)C1=N[C@H](C(=O)*)CS1; dOrn = NCCC[C@@H](N)C(=O)O
One number for each entry, in µg/mL.

Use these answered entries as a reference point.
O=C(O)c1cc(O)c(O)c(O)c1 :: 128
CC[C@H](C)[C@H](N)C1=N[C@H](C(=O)N[C@@H](CC(C)C)C(=O)N[C@H](CCC(=O)O)C(=O)N[C@H](C(=O)N[C@H]2CCCCNC(=O)[C@H](CC(N)=O)NC(=O)[C@@H](CC(=O)O)NC(=O)[C@H](Cc3cnc[nH]3)NC(=O)[C@@H](Cc3ccccc3)NC(=O)[C@H]([C@@H](C)CC)NC(=O)[C@@H](CCCN)NC2=O)[C@@H](C)CC)CS1 [Bacitracin, reference compound] ({Ileψ(thiazoline)Cys}-L[dE]IK[dOrn]I[dF]H[dD]N; lactam 4-C) :: 1024

Take each entry in turn and give its MIC.
1. COC(=O)c1cc(O)c(O)c(O)c1 [Methyl gallate (MG), methyl gallate]
2. CCCCCCCCCCCCOC(=O)c1cc(O)c(O)c(O)c1 [Lauryl gallate, lauryl gallate]
3. CCCCCCCCOC(=O)c1cc(O)c(O)c(O)c1 [Octyl gallate (OG), octyl gallate]
4. CCCOC(=O)c1cc(O)c(O)c(O)c1 [Propyl gallate, propyl gallate]
5. CCOC(=O)c1cc(O)c(O)c(O)c1 [Ethyl gallate (EG), ethyl gallate]

Ans:
1. 128
2. 32
3. 32
4. 128
5. 128
